Measured FOLD INDUCTION of PXR reporter luciferase activity accompanies every entry in the list below.
# tested-target: PXR (Homo sapiens, UniProt O75469)
# Sequence (O75469 1-434): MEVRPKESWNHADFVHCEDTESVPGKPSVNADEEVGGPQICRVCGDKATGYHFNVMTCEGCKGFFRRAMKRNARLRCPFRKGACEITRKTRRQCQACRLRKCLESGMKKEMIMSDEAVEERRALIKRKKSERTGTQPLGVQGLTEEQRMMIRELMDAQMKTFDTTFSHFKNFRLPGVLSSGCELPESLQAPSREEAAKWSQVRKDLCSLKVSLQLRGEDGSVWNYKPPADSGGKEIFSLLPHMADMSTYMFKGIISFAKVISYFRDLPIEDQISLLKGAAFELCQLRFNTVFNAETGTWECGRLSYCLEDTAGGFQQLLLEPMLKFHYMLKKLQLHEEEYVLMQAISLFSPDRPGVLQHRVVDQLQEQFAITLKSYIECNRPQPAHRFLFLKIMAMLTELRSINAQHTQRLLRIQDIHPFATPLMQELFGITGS
# protocol-details: PXR reporter (p3A4-luc luciferase) assay in LS180 cells transiently transfected with wild-type PXR
# setup-conditions: 25 uM, 24 h, over UT
Unit fold implied. Number only.

# example entries with known answers
>>> measurement("OC(c1ccncc1)(c1cc2ccccc2[nH]1)c1cc2ccccc2[nH]1 [FKK2]")
15.1
>>> measurement("CC#CC(O)(c1ccncc1)c1cc2ccccc2n1S(=O)(=O)c1ccccc1 (racemic) [FKK3]")
27.0
>>> measurement("O=S(=O)(c1ccccc1)n1c(C(O)Cc2cc3ccccc3[nH]2)cc2ccccc21 (racemic) [FKK8]")
19.7
>>> measurement("CCOCn1c(C(O)(Cc2cc3ccccc3[nH]2)c2ccncc2)cc2ccccc21 (racemic) [FKK9]")
18.0

Reading of FOLD INDUCTION of PXR reporter luciferase activity for O=S(=O)(c1ccccc1)n1c(C(O)c2ccncc2)cc2ccccc21 (racemic) [FKK1] with PXR (Homo sapiens, UniProt O75469): 24.3

The observed FOLD INDUCTION of PXR reporter luciferase activity for O=S(=O)(c1ccccc1)n1c(C(O)(Cc2cc3ccccc3[nH]2)c2ccncc2)cc2ccccc21 (racemic) [FKK7] when tested with PXR (Homo sapiens, UniProt O75469) stands at 21.2

Record OC(Cc1cc2ccccc2[nH]1)(c1ccncc1)c1cc2ccccc2[nH]1 (centres unmarked) [FKK10] has PXR (Homo sapiens, UniProt O75469) FOLD INDUCTION of PXR reporter luciferase activity equal to 15.0

Value sought: FOLD INDUCTION of PXR reporter luciferase activity, system PXR (Homo sapiens, UniProt O75469), item CC#CC(O)(c1ccncc1)c1cc2ccccc2n1COCC (centres unmarked) [FKK4] . Result: 38.4
